# system: integrin α4β1 (RAMOS human cells adhering to VCAM-1) (Homo sapiens, UniProt P05556+P13612)
# Construct: Ramos cells, which express integrin α4β1; host or cells: RAMOS
# testDetails: Integrin α4β1-VCAM cell adhesion assay (RAMOS cells)
# Format: cell-based
# assaySetup: ratio of cell adhesion IC50s, Ramos α4β1/VCAM over RPMI8866 α4β7/MAdCAM
# Procedure: Integrin α4β1-VCAM Cell Adhesion Assay The plate was incubated overnight at 4° C. and washed twice with 150 μl per well wash buffer (0.05% Tween 20 in PBS), blocked with 250 μl per well blocking buffer (1% non-fat dry milk in PBS), for 1 hour at room temperature. […] To calculate the dose response, the fluorescence value of control wells not containing cells was subtracted from each test well.
quantityName: Ratio Ramos/RPMI

### Prompt Name the reported Ratio Ramos/RPMI value associated with the molecule CC(C)C[C@@H]1NC(=O)c2ccc(-c3ccc(N4CCN(C(=O)C[C@@H](N)C(=O)N5CCN(c6ccc(-c7ccc8cc7CNC(=O)[C@@H]7CCCN7[C@H](C(=O)NC(C)(C)C)[C@H](C)NC(=O)[C@H]([C@@H](C)O)NC(=O)[C@H](CC(=O)O)NC(=O)[C@H](CC(C)C)NC8=O)cc6)CC5)CC4)cc3)c(c2)CNC(=O)[C@@H]2CCCN2[C@H](C(=O)NC(C)(C)C)[C@H](C)NC(=O)[C@H]([C@@H](C)O)NC(=O)[C@H](CC(=O)O)NC1=O
### Response 28

====

# system: recombinant integrin α4β7 (Homo sapiens, UniProt P13612+P26010, DEL724-798)
# Construct: purchased R&D Systems 5397-A3-050
# Sequence (P13612 34-970 limits assumed): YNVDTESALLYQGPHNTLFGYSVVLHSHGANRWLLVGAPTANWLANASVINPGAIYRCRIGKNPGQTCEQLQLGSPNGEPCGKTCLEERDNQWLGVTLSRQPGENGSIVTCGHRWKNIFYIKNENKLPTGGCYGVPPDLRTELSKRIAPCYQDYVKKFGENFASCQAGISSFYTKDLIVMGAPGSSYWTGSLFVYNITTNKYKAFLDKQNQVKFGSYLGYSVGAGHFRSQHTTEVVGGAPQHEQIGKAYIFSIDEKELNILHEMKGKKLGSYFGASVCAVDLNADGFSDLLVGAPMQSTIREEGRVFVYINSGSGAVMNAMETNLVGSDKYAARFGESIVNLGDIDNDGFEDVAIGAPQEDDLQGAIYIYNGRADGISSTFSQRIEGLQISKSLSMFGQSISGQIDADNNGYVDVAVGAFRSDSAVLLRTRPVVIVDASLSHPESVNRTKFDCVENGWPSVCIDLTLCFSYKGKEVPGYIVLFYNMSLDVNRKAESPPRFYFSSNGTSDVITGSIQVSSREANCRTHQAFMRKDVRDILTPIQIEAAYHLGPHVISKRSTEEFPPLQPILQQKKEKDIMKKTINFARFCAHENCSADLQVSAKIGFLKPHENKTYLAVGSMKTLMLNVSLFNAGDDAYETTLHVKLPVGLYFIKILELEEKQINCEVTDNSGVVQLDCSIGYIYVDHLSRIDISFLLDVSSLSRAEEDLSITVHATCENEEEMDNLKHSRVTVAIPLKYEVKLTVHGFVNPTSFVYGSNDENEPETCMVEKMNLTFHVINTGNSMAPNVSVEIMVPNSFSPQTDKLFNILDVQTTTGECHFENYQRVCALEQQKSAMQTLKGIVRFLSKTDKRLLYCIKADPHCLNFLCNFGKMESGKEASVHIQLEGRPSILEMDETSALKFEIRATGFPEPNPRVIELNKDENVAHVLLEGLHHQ
# Sequence (P26010 20-723 limits assumed): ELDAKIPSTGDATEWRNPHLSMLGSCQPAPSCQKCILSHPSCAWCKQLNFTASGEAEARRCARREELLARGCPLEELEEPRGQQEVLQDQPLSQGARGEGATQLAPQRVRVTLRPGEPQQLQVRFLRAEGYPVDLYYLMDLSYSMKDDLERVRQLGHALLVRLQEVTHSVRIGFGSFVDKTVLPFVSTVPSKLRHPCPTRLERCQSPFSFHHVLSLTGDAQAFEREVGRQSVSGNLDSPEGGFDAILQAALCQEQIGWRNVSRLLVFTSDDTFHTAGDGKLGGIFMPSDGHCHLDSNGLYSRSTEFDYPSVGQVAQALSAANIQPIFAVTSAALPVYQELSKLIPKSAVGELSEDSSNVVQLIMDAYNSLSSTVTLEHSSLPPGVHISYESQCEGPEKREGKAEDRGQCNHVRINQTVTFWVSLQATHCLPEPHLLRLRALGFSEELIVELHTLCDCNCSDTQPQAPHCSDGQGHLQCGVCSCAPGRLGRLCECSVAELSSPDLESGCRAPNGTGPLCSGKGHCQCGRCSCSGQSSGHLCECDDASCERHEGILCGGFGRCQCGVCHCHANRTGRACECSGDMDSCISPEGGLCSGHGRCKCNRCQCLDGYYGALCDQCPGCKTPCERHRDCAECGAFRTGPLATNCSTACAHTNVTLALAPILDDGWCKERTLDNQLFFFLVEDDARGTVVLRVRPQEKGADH
# testDetails: Integrin α4β7—MAdCAM-1 ELISA competition assay
# Assay type: binding
# assaySetup: read-out: ELISA a4b7 Assay IC50
Would you mind telling me the reported pIC50 of each entry?
One number for each entry, as −log10 of the molar value.

Examples with their reported pIC50 follow.
### Prompt Name the reported pIC50 value associated with the compound CC(C)C[C@@H]1NC(=O)C[C@H](CCCCN)NC(=O)[C@H](Cc2cccc(-c3ccc(F)c(F)c3)c2)NC(=O)[C@@H]2CCCN2[C@H](C(=O)NC(C)(C)C)[C@H](C)NC(=O)[C@H]([C@@H](C)O)NC(=O)[C@H](CC(=O)O)NC1=O [Compound 267]
### Response 7.36

### Prompt Name the reported pIC50 value associated with the compound Cc1cccc(C)c1-c1ccccc1C[C@@H]1NC(=O)[C@@H]2CCCN2[C@H](C(=O)NC(C)(C)C)[C@H](C)NC(=O)[C@H]([C@@H](C)O)NC(=O)[C@H](CC(=O)O)NC(=O)[C@H](CC(C)C)NC(=O)C[C@H](CCCCN)NC1=O [Compound 272]
### Response 7.39

### Prompt Name the reported pIC50 value associated with the compound CC(C)C[C@@H]1NC(=O)[C@@H]2C[C@@H](O)CN2C(=O)[C@H](Cc2ccc(O)cc2)NC(=O)[C@@H]2CCCN2[C@H](C(=O)NC(C)(C)C)[C@H](C)NC(=O)[C@H]([C@@H](C)O)NC(=O)[C@H](CC(=O)O)NC1=O [Compound 139]
### Response 7.00

### Prompt Name the reported pIC50 value associated with the compound CC(C)C[C@@H]1NC(=O)[C@@H](CCCN(C)C)NC(=O)[C@@H]2CCCN2[C@H](C(=O)NC(C)(C)C)[C@H](C)NC(=O)[C@H]([C@@H](C)O)NC(=O)[C@H](CC(=O)O)NC1=O [Compound 83]
### Response 6.75

### Prompt Name the reported pIC50 value associated with the compound CC(C)C[C@@H]1NC(=O)CNC(=O)[C@H](Cc2ccc(CN)cc2)NC(=O)[C@@H]2CCCN2[C@H](C(=O)NC(C)(C)C)[C@H](C)NC(=O)[C@H]([C@@H](C)O)NC(=O)[C@H](CC(=O)O)NC1=O [Compound 165]
### Response 6.89

### Prompt Name the reported pIC50 value associated with the compound CC(C)C[C@@H]1NC(=O)C2(Cc3ccccc3C2)NC(=O)[C@@H]2CCCN2[C@H](C(=O)NC(C)(C)C)[C@H](C)NC(=O)[C@H]([C@@H](C)O)NC(=O)[C@H](CC(=O)O)NC1=O [Compound 89]
### Response 7.80

### Prompt Name the reported pIC50 value associated with the compound CC(C)C[C@@H]1NC(=O)[C@H](CCc2ccccc2)NC(=O)[C@@H]2CCCN2[C@H](C(=O)NC(C)(C)C)[C@H](C)NC(=O)[C@H]([C@@H](C)O)NC(=O)[C@H](CC(=O)O)NC1=O [Compound 6]
### Response 6.99

### Prompt Name the reported pIC50 value associated with the compound CC(C)C[C@@H]1NC(=O)c2ccc(-c3ccccc3N3CCNCC3)c(c2)CNC(=O)[C@@H]2CCCN2[C@H](C(=O)NC(C)(C)C)[C@H](C)NC(=O)[C@H]([C@@H](C)O)NC(=O)[C@H](CC(=O)O)NC1=O [Compound 348]
### Response 7.57

Attention now turns to another entry.
### Prompt Name the reported pIC50 value associated with the compound CC[C@H](C)[C@@H]1NC(=O)[C@H](CC(=O)O)NC(=O)[C@H](CC(C)C)NC(=O)C[C@H](CCCCN)NC(=O)[C@@H](Cc2ccc(CN)cc2)NC(=O)[C@@H]2CCCN2[C@H](C(=O)NC(C)(C)C)[C@H](C)NC1=O [Compound 253]
### Response 7.16
